# Tested on: 697B cells, BCR-induced NF-kB luciferase reporter luminescence
# experimentalProtocol: inhibitors of BCR-induced NF-kB activation, dose response, 697B cells, luciferase luminescence (AID 489023)
Calls of active or inactive are those of the source. How the calls were made is not given here.
Measured IC50 values are reported for all entries that follow.

Examples with their reported IC50 follow.
CC(C)(C)c1ccc(-c2noc(CCC(=O)N3CCOCC3)n2)cc1 | 51.6 µM (inactive)
Cn1c(=O)cc(OCCCC(=O)NC2CCCC2)c2ccccc21 | 34.4 µM (inactive)
CC(C)[C@H](N)c1nnc(SCC(=O)c2ccc(Cl)cc2)o1 | > 80 µM (inactive)

Q: Query (compound): Cc1nn(C(C)(C)C)c(C)c1/C=N/OC(=O)Nc1ccc(Cl)c(Cl)c1 ; field requested: IC50
Ans: 0.74 µM

Q: Request the reported IC50 associated with COc1cc(C[C@@H]2C(=O)OC[C@H]2Cc2ccc(OC)c(OC)c2)ccc1O
Ans: > 80 µM (inactive)

Q: # input compound: N=c1ccn(Cc2ccccc2Cl)cc1 ; wanted: its IC50
Ans: > 80 µM (inactive)

====

# System: 697B cells, BCR-induced NF-kB luciferase reporter luminescence
# experimentalProtocol: inhibitors of BCR-induced NF-kB activation, dose response, 697B cells, luciferase luminescence (AID 489023)
Activity calls are given as the source filed them. How the calls were made is not given here.
Permitted responses: active, inactive

Cc1cc(C)c2nc(NC(=O)[C@@H](NC(=O)c3cccc(S(=O)(=O)N4CCOCC4)c3)C(C)C)sc2c1 | active
CCC(C)N1C(=O)/C(=C/c2c(NCCCOC(C)C)nc3c(C)cccn3c2=O)SC1=S (stereo not given) | inactive
Cc1ccc(-c2cc(C(=O)NCCCN3CCOCC3)no2)cc1 | active
CC(C)(C)c1ccc(-c2noc(CCC(=O)NCC3CCCO3)n2)cc1 (stereo not given) | active

Q: Hi, do you know how COc1ccc(-c2n(Cc3ccccc3)c3ccccc3[n+]2Cc2ccccc2)cc1 came out in this test?
Ans: inactive

====

# Tested on: 697B cells, BCR-induced NF-kB luciferase reporter luminescence
# experimentalProtocol: inhibitors of BCR-induced NF-kB activation, dose response, 697B cells, luciferase luminescence (AID 489023)
Active and inactive are the calls of the source. The rule behind the calls is not given here.
Mark one answer only. Choices: active, inactive

NC(=S)N=Nc1c(O)n(Cc2ccccc2)c2ccccc12 | active
CSC1CCCCC1(O)CSc1nc2c(cc1C#N)CCCC2 (configuration not stated) | inactive
CC(C)N1C(=O)S/C(=C/c2ccc3c(c2)n(C)c(=O)n3C)C1=O | inactive
N#CC1=C(N)Oc2cc(Nc3ccccc3)ccc2C1c1ccncc1 (configuration not stated) | active
CC(C)(C)c1ccc(-c2nnc(SCC(=O)NC3CC3)o2)cc1 | inactive

Q: Look up the recorded call for Cn1nnnc1Sc1ncnc2scc(Br)c12 in this test.
Ans: active

Q: Entry O=C(N/N=C/c1cccnc1)c1cc(-c2ccccc2OCc2ccccc2)n[nH]1 : call = ?
Ans: active

Q: Answer briefly: the call reported for COc1ccc(N(CC(=O)N2CCN(c3ccc(Cl)cc3)CC2)S(=O)(=O)c2c(C)n[nH]c2C)cc1 in this assay.
Ans: inactive

Q: Returns: the outcome recorded for CCCNC(=O)c1ccc(N2CCC3(CC2)CC(c2cccc(Br)c2)=NO3)c(NC(=O)c2ccc(Cl)c([N+](=O)[O-])c2)c1 in this assay.
Ans: inactive

Q: Tell me the recorded outcome of this test for O=C(Oc1cccc(/C=N/Nc2nc(Nc3ccccc3)nc(N3CCOCC3)n2)c1)c1ccco1 .
Ans: active
